The following compounds are shown together with reported Ki values.
assay-system: Histone deacetylase
protocol-description: Inhibition of HDAC in human Hela cells nuclear extracts by fluorimetric assay
Type: cell-based
Provide only the numeric value, understood in µM.

[
  {
    "compound": "O=C([O-])CCCc1ccccc1.[Na+] [SODIUM PHENYLBUTYRATE]",
    "unit-of-measurement": "µM",
    "numeric-readout": 6.34
  },
  {
    "compound": "CCCC(=O)[O-].[Na+] [SODIUM BUTYRATE]",
    "unit-of-measurement": "µM",
    "numeric-readout": 365
  },
  {
    "compound": "O=C(/C=C/c1ccc(O)c(O)c1)O[C@@H]1C[C@](O)(C(=O)O)C[C@@H](O)[C@H]1O [CHLOROGENIC ACID]",
    "unit-of-measurement": "µM",
    "numeric-readout": 0.135
  },
  {
    "compound": "O=C(O)/C=C/c1ccccc1 [CINNAMIC ACID]",
    "unit-of-measurement": "µM",
    "numeric-readout": 0.00821
  },
  {
    "compound": "NCCCC(=O)O [GAMMA-AMINOBUTYRIC ACID]",
    "unit-of-measurement": "µM",
    "numeric-readout": 8.19
  }
]

Noted for O=C(O)/C=C/c1ccc(O)c(O)c1 [CAFFEIC ACID] : its Ki reads 10.84

Noted for CCCC(=O)O [BUTYRIC ACID] : its Ki reads 136
